The reported numbers originate from PubChem BioAssay AID1259332.

- method: inhibitors of CD40 signaling, dose response, B cell lineage (AID 1259332);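 note: cells stimulated with CD40 ligand tCD40L; 0% = neutral control wells and -100% = positive control wells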
- experimental.context: B cell line, CD40 signaling inhibition reporter; at 1.1 µM (top of the series)
property.label: activity change, negative = inhibition (%)
Please respond with the number in % and leave the unit unwritten.

CO[C@@H](CN(C)S(=O)(=O)c1ccc(Cl)cc1)[C@H](C)CN(Cc1ccccc1Cl)[C@@H](C)CO    0.243

Query string: Name the reported activity change, negative = inhibition value associated with the molecule "O=C1C(=NO)CCc2ccccc21"
Result string: 21.3

Query string: Given the entry "CC(C)(C)[S@](=O)N1Cc2cc(C(=O)NCC(F)(F)F)nc(-c3cccc(-c4cccc(F)c4)c3)c2[C@@H]1CCO" , report its measured activity change, negative = inhibition.
Result string: 9.18

Query string: Please report the recorded activity change, negative = inhibition for "CCc1cnc(N2[C@H](C#N)[C@@H](c3ccccc3C3=CCCC3)[C@@H]2CO)s1" .
Result string: 18.2

Query string: What measured activity change, negative = inhibition goes with C/C=C/c1ccc(C2[C@H]3CNC[C@@H]2N3Cc2cccc(OC)c2)cc1 (stereo not given in full) ?
Result string: 19.7

---

activity change, negative = inhibition values by entry
- method: inhibitors of CD40 signaling, dose response, B cell lineage (AID 1259332);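 note: cells stimulated with CD40 ligand tCD40L; 0% = neutral control wells and -100% = positive control wells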
- experimental.context: B cell line, CD40 signaling inhibition reporter; at 1.1 µM (top of the series)
Activity calls are given as the source filed them. No rule for the calls is given here.

Previously resolved entries follow.
COc1ccc(S(=O)(=O)N(C)C[C@H]2Oc3ccc(NC(=O)Nc4ccc(C(F)(F)F)cc4)cc3C(=O)N([C@@H](C)CO)C[C@@H]2C)cc1    11.5% (inactive)
O=C(Nc1nc2ccccc2s1)c1ccc(OCC2CCCO2)cc1 (centres undefined)    111% (inactive)
COc1ccc(C#Cc2ccc([C@H]3[C@@H](CO)N4CCCCN(S(=O)(=O)c5cn(C)cn5)C[C@H]34)cc2)cc1    15.6% (inactive)

Please look at the following compound next.
Query string: I am curious: what activity change, negative = inhibition value has been reported for "C[C@@H]1CCCCO[C@@H](CN(C)S(=O)(=O)c2ccc(Cl)cc2)[C@H](C)CN([C@H](C)CO)C(=O)c2cc(NC(=O)Nc3ccc(C(F)(F)F)cc3)ccc2O1" ?
Result string: 1.11% (inactive)
